From: paper PMC3774010

# Test system: H1299 cells
# Assay method text: SRB cell growth assay, H1299
# Format: cell-based, human
# Run conditions: Homo sapiens, NCI-H1299, 72 h
Quantity kind: IC50 (µM)
Report the figure in µM without appending any unit label.

Recall and state the measured IC50 for CN(C)CC[C@H](CSc1ccccc1)Nc1ccc(S(=O)(=O)NC(=O)c2ccc(N3CCN(Cc4ccccc4-c4ccc(Cl)cc4)CC3)cc2)cc1[N+](=O)[O-] [ABT-737, reference compound] .
40.5

====

# Experimental system: human Bcl-XL protein (Homo sapiens, UniProt Q07817)
# Sequence (Q07817 whole entry): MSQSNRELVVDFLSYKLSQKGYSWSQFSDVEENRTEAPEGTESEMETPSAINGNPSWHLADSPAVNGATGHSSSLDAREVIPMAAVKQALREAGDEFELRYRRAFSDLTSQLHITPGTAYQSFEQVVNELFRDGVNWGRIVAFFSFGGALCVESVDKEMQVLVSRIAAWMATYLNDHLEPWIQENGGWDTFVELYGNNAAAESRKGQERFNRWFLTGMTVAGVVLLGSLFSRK
Here, each record is paired with measured Ki data.
Report the figure in nM without appending any unit label.

• CCOc1ccc2nc3cc(N=Nc4ccc(N)nc4N)ccc3c(N)c2c1 [BXI-61] = 14.8

Recall and state the measured Ki for CCOc1ccc(-c2nc3ccc(-c4nc5ccc(N6CCN(C)CC6)cc5[nH]4)cc3[nH]2)cc1 [BXI-72] .
0.9

====

# Tested on: H157 cells
# Assay method text: SRB cell growth assay, H157
# Format: cell-based, human
# Run conditions: Homo sapiens, NCI-H157, 72 h
Quantity kind: IC50

Recall and state the measured IC50 for CN(C)CC[C@H](CSc1ccccc1)Nc1ccc(S(=O)(=O)NC(=O)c2ccc(N3CCN(Cc4ccccc4-c4ccc(Cl)cc4)CC3)cc2)cc1[N+](=O)[O-] [ABT-737, reference compound] .
27.6 µM
